Experimental details: Pharmacokinetics in male hamsters, plasma and lung, IV 3 mg/kg or PO 30 mg/kg
Recorded conditions: male, hamster, in vivo, po, 30 mg/kg, Ratio (Lung/Plasma), Mean, Compound P3 PO 30 mg/kg, 1 h
Test readout: Kp at 1 h
Simply state the number, no unit and no words.

Problem: Supply reported Kp at 1 h belonging to this compound: O=C(Nc1ccc([N+](=O)[O-])cc1Cl)c1cc(Cl)ccc1OC(=O)N1CCNCC1 [Compound P3]
Result: 99

----------
Tested on: SARS CoV-2 (USA_WA1/2020)
Experimental details: Cytopathic effect (CPE) assay
Format: cell-based
Recorded conditions: Severe acute respiratory syndrome coronavirus 2, Vero C1008; rescue IC50, SARS-CoV-2-infected Vero-E6, 72 h
The molecules listed here are annotated with their IC50.
Numeric answer only, unit µM assumed.

These solved cases illustrate the format of a correct answer.
# Molecule, Uom, IC50
rows = [
    ("CC(C)OC(=O)Oc1ccc(Cl)cc1C(=O)Nc1ccc([N+](=O)[O-])cc1Cl", "µM", 0.11),
    ("CCCCCCCC(=O)Oc1ccc(Cl)cc1C(=O)Nc1ccc([N+](=O)[O-])cc1Cl [Compound P2]", "µM", 0.1),
    ("O=C(Oc1ccc(Cl)cc1C(=O)Nc1ccc([N+](=O)[O-])cc1Cl)c1ccccc1", "µM", 0.13),
]

// below: IC50 requested for another molecule
Problem: Supply reported IC50 belonging to this molecule: COCC(=O)Oc1ccc(Cl)cc1C(=O)Nc1ccc([N+](=O)[O-])cc1Cl
Result: 0.11
